This collection of values is drawn from the supplement of paper PMC6522484.

Test system: DLD1
method description: TCF/Wnt firefly luciferase reporter signal relative to plate median (fraction of plate median); higher = higher Wnt reporter signal
experimental conditions: 5 µM; treatment time 24 h; reporter: 7TFP
Decision: TCF/Wnt firefly luciferase reporter signal >= 1 yields true, all other cases yield false.

CC1(C)C=Cc2c(cc3occ(-c4ccc5c(c4)OCO5)c(=O)c3c2O)O1 ... false
COc1cc(C(N)=O)ccc1O [4-Hydroxy-3-methoxy-benzoic acid amide, Vanillic acid amide] ... true
C[N+](C)(C)CCOC(N)=O ... true
O=C(O)CCCC[C@@H]1CCSS1 (racemic) ... false

Shift focus to the following entry.
Is reported TCF/Wnt firefly luciferase reporter signal greater than or equal to 1 here: C[C@@H]1CC(=O)c2c(ccc3c2C(=O)c2cccc(O)c2C3=O)C1 [Ochromycinone (Isoform C, Compound ID 7613)]
true

* * *

System: DLD1
method description: cell viability (CellTiter-Glo) relative to plate median (fraction of plate median); higher = more viable cells
experimental conditions: 5 µM; treatment time 24 h; reporter: 7TFP
measured endpoint: cell viability

CCC[C@@H]1C[C@@H](C(=O)N[C@@H]([C@H]2O[C@H](SC)[C@H](O)[C@@H](O)[C@H]2O)[C@H](C)Cl)N(C)C1 ... 0.966
O=C(O)C1CC([C@@H]2CCCCN2)CN2CCCCC12 (some centres undefined) ... 1.03
N=C(N)N/N=C/c1c(Cl)cccc1Cl ... 0.976

Which measured cell viability belongs to CC1=C(/C=C/C(C)=C/C=C/C(C)=C/CO)C(C)(C)CCC1 , tested on DLD1?
0.974

* * *

Tested on: HCT116
method description: cell viability (CellTiter-Glo) relative to plate median (fraction of plate median); higher = more viable cells
experimental conditions: 5 µM; treatment time 24 h; reporter: TCF4/Wnt
Quick reference: cell viability of the listed items.
Response field accepts a number only; no unit should be typed.

Cc1cc(/C=C/c2ccc3cc(N(C)C)ccc3[n+]2C)c(C)n1-c1ccccc1 ... 0.592
CC(=O)OCC(=O)[C@@]12OC3(CCCC3)O[C@@H]1C[C@H]1[C@@H]3CCC4=CC(=O)C=C[C@]4(C)[C@@]3(F)[C@@H](O)C[C@@]12C ... 0.896
CC(=O)OC[C@H]1O[C@@H](Oc2cc(OC(C)=O)c3c(=O)cc(-c4ccc(OC(C)=O)cc4)oc3c2)[C@H](OC(C)=O)[C@@H](OC(C)=O)[C@@H]1OC(C)=O ... 1.11

Which cell viability value belongs to COc1cc2c(cc1OC)C(=O)C(CC1CCN(Cc3ccccc3)CC1)C2 (stereo not drawn) ?
1.06

Next entry: CC(=O)Nc1ccccc1
0.97

Next entry: COc1cc([C@@H]2c3cc4c(cc3[C@@H](O[C@@H]3O[C@@H]5CO[C@@H](c6cccs6)O[C@H]5[C@H](O)[C@H]3O)[C@H]3COC(=O)[C@H]23)OCO4)cc(OC)c1O
0.747

* * *

Test system: SW480
method description: cell viability (CellTiter-Glo) relative to plate median (fraction of plate median); higher = more viable cells
experimental conditions: 5 µM; treatment time 24 h; reporter: 7TFP
Quick reference: cell viability of the listed items.
Response field accepts a number only; no unit should be typed.

Nc1nccs1 ... 1.02

Which cell viability value belongs to CCCC(=O)Nc1ncnc2c1ncn2[C@@H]1O[C@@H]2COP(=O)(O)O[C@H]2[C@H]1OC(=O)CCC ?
0.987

Next entry: Cc1ccc(C(=O)c2ccc(CC(=O)O)n2C)cc1
1

* * *

Tested on: DLD1
method description: TCF/Wnt firefly luciferase reporter signal relative to plate median (fraction of plate median); higher = higher Wnt reporter signal
experimental conditions: 5 µM; treatment time 24 h; reporter: 7TFP
measured endpoint: TCF/Wnt firefly luciferase reporter signal
Response field accepts a number only; no unit should be typed.

O=C1CN2Cc3c(ccc(Cl)c3Cl)N=C2N1 ... 1.19
FC(F)(F)C(Cl)Br (stereo not drawn) ... 1.02

Next molecule, TCF/Wnt firefly luciferase reporter signal to be filled in.
Which TCF/Wnt firefly luciferase reporter signal value belongs to CC(C)NCC(O)c1ccc2ccccc2c1 (stereo not drawn) ?
0.962

* * *

System: SW480
method description: TCF/Wnt firefly luciferase reporter signal relative to plate median (fraction of plate median); higher = higher Wnt reporter signal
experimental conditions: 5 µM; treatment time 24 h; reporter: 7TFP
Quick reference: TCF/Wnt firefly luciferase reporter signal of the listed items.

C/C(=C\C(=O)OCCCCCCCCC(=O)O)C[C@@H]1OC[C@H](C[C@@H]2O[C@H]2[C@@H](C)[C@H](C)O)[C@@H](O)[C@H]1O ... 1.03
CN(C)CCCN1c2ccccc2Sc2ccc(C(F)(F)F)cc21 ... 0.959
CCCN(CCC)C(=O)C(CCC(=O)O)NC(=O)c1ccccc1 (stereo unspecified) ... 1.06

Which TCF/Wnt firefly luciferase reporter signal value belongs to COc1ccc(CC(=O)c2ccc(O)cc2O)cc1 ?
1.07

Next entry: O=C1NCC(=O)N2CCCC12 (stereo unspecified) [Cyclo(glycylprolyl)]
0.978

Next entry: COc1cc(O)c(C(C)=O)c(OC)c1
0.983

Next entry: CNCCCN1c2ccccc2CCc2ccccc21
0.934

Next entry: O=C(CCCN1CCC(O)(c2ccc(Cl)cc2)CC1)c1ccc(F)cc1
1.05

Next entry: Nc1ccc(S(=O)(=O)Nc2nccs2)cc1
1.05

Next entry: CC1(C)CC2C1CC[C@]1(CBr)CCC3C(CC(=O)O)C(=O)O[C@@]32C1 (stereo partly specified) [BROMO-3-HYDROXY-4-(SUCCIN-2-YL)-CARYOLANE gamma-LACTONE]
1.09

Next entry: COc1ccc(OC)c(C(O)CNC(=O)CN)c1 (stereo unspecified)
1.16

Next entry: C[C@@H]1CC(=O)O[C@H](C)Cc2cc(O)cc(O)c2C(=O)O[C@H](C)CC(=O)O[C@H](C)Cc2cc(O)cc(O)c2C(=O)O[C@H](C)CC(=O)O1
0.918

Next entry: COc1ccc(C[C@H](N)C(=O)N[C@H]2[C@@H](O)[C@H](n3cnc4c(N(C)C)ncnc43)O[C@@H]2CO)cc1
1.05

Next entry: CC(=O)c1oc2cc3[nH]c(=O)cc(C)c3cc2c1C [2-Acetyl-3,5-dimethylfuro[3,2-g]quinolin-7-one (VFT-05)]
0.979

Next entry: COc1cc(/C=C/C(=O)CC(=O)/C=C/c2ccc(O)c(OC)c2)ccc1O
0.982

Next entry: CC(=O)O[C@H]1CC[C@@]2(C)[C@H](CC[C@@H]3[C@@H]2CC[C@]2(C)[C@@H]4[C@H](C[C@@H]32)O[C@]2(CC[C@@H](C)CO2)[C@H]4C)C1
0.941

* * *

Tested on: SW480
method description: TCF/Wnt firefly luciferase reporter signal relative to plate median (fraction of plate median); higher = higher Wnt reporter signal
experimental conditions: 5 µM; treatment time 24 h; reporter: 7TFP
Decision: TCF/Wnt firefly luciferase reporter signal >= 1 yields y, all other cases yield n.

O=C(O)CCCC[C@@H]1CCSS1 (racemic) ... n
Nc1ncnc2c1ncn2[C@H]1C[C@H](O)[C@@H](CO)O1 ... y
CCOC(=O)[C@H](CCc1ccccc1)N[C@@H](C)C(=O)N1[C@H](C(=O)O)C[C@@H]2CCC[C@@H]21 ... y
O=C(/C=C/c1ccc(O)c(O)c1)O[C@H](Cc1ccc(O)c(O)c1)C(=O)O ... n
CC(=O)NO ... y

Is reported TCF/Wnt firefly luciferase reporter signal greater than or equal to 1 here: CCCCCC(C)N (stereo not drawn)
y

Next entry: COc1cc(C(=O)NCc2ccc(OCCN(C)C)cc2)cc(OC)c1OC
n

Next entry: COC(=O)C[C@H]1C(C)(C)[C@@H](O)[C@@H]2CC3=C4CC(O)O[C@@H](c5ccoc5)[C@]4(C)CCC3[C@@]1(C)C2=O (stereo partly drawn) [3,16-DIDEOXYMEXICANOLIDE-3beta-DIOL]
n

Next entry: CC[C@H](C)C(=O)O[C@H]1C[C@@H](C)C=C2C=C[C@H](C)[C@H](CC[C@@H]3C[C@@H](O)CC(=O)O3)[C@H]21 [Mevinolin, Lovastatin]
n

* * *

Tested on: HCT116
method description: cell viability (CellTiter-Glo) relative to plate median (fraction of plate median); higher = more viable cells
experimental conditions: 10 µM; treatment time 24 h; reporter: TCF4/Wnt
Labelling field: enter fulfilled if recorded cell viability is less than 1. Enter not fulfilled if it equals or exceeds that cut-off.

Worked examples follow.
OCCn1cc(-c2cnc3nnn(Cc4ccc5ncccc5c4)c3n2)cn1 ... not fulfilled
NC(=O)Nc1sc(-c2ccc(F)cc2)cc1C(N)=O ... not fulfilled

Shift focus to the following entry.
Please check: cell viability for Cc1ccc(C(=O)Nc2ccc(CN3CCN(C)CC3)c(C(F)(F)F)c2)cc1C#Cc1cnc2cccnn12 , strictly under 1 or not?
fulfilled
